# Tested on: Schoenoplectiella juncoides
# assay: Pre-emergence herbicidal activity against Schoenoplectiella juncoides assessed as phytotoxic weed control visual ratings at 2.5 kg ai/ha measured after 14 days post treatment under flooded conditions
# Assay type: functional
// reported Phytotoxicity for each item listed
readout-kind: Phytotoxicity

# molecular-string, test-target, result
rows = [
    ("CC(C)=C1OC(=O)N(c2ccc(Cl)cc2)C1=O", "Schoenoplectiella juncoides", "100%"),
    ("CC(C)=C1OC(=O)N(c2cccc(Cl)c2)C1=O", "Schoenoplectiella juncoides", "10%"),
    ("CC(C)=C1OC(=O)N(c2cc(Cl)cc(Cl)c2)C1=O", "Schoenoplectiella juncoides", "30%"),
]

====

# System: Zea mays
# assay: Pre-emergence phytotoxicity against Zea mays (maize) assessed as phytotoxic crop injury visual ratings at 500 g ai/ha measured after 14 days post treatment under upland field conditions
# Format: organism-based
# test-settings: in vivo, other, 336 h

# compound, units-symbol, Phytotoxicity
data = [
    ("CCCCCCOc1cc(N2C(=O)OC(=C(C)C)C2=O)c(F)cc1Cl", "%", 0),
    ("CC(C)=C1OC(=O)N(c2cc(OC(C)C)c(Cl)cc2F)C1=O", "%", 10),
    ("CC(C)Oc1cc(-n2nc(C(C)(C)C)oc2=O)c(Cl)cc1Cl", "%", 40),
    ("CCC(CC)Oc1cc(N2C(=O)OC(=C(C)C)C2=O)c(F)cc1Cl", "%", 0),
    ("CCC(C)Oc1cc(N2C(=O)OC(=C(C)C)C2=O)c(F)cc1Cl (stereo unspecified)", "%", 0),
    ("C=CCOc1cc(N2C(=O)OC(=C(C)C)C2=O)c(F)cc1Cl", "%", 10),
]

====

Listed next: entries and their corresponding Phytotoxicity.
# Tested on: Rotala indica
# assay: Pre-emergence herbicidal activity against Rotala indica assessed as phytotoxic weed control visual ratings at 25 g ai/ha measured after 14 days post treatment under flooded conditions
# Assay type: functional

# compound, units-symbol, Phytotoxicity
data = [
    ("COc1cc(N2C(=O)OC(=C(C)C)C2=O)c(F)cc1Cl", "%", 100),
    ("CCC(C)Oc1cc(N2C(=O)OC(=C(C)C)C2=O)c(F)cc1Cl (stereo not drawn)", "%", 100),
    ("CC(C)=C1OC(=O)N(c2cc(O)c(Cl)cc2F)C1=O", "%", 10),
    ("CC(C)=C1OC(=O)N(c2cc(OC3CCCCC3)c(Cl)cc2F)C1=O", "%", 100),
    ("C=CCOc1cc(N2C(=O)OC(=C(C)C)C2=O)c(F)cc1Cl", "%", 100),
    ("C#CCSc1cc(N2C(=O)OC(=C(C)C)C2=O)c(F)cc1Cl", "%", 100),
    ("C#CCOc1cc(N2C(=O)OC(=C(C)C)C2=O)c(F)cc1Cl", "%", 100),
    ("CCCCCCOc1cc(N2C(=O)OC(=C(C)C)C2=O)c(F)cc1Cl", "%", 70),
    ("CCOc1cc(N2C(=O)OC(=C(C)C)C2=O)c(F)cc1Cl", "%", 100),
    ("CC(C)Oc1cc(-n2nc(C(C)(C)C)oc2=O)c(Cl)cc1Cl", "%", 100),
    ("CCC(CC)Oc1cc(N2C(=O)OC(=C(C)C)C2=O)c(F)cc1Cl", "%", 100),
    ("CC(C)=C1OC(=O)N(c2cc(OC(C)C)c(Cl)cc2F)C1=O", "%", 100),
    ("CC(C)=C1OC(=O)N(c2cc(OC3CCCC3)c(Cl)cc2F)C1=O", "%", 100),
]

====

# Tested on: Elatine triandra
# assay: Pre-emergence herbicidal activity against Elatine triandra assessed as phytotoxic weed control visual ratings at 1.25 kg ai/ha measured after 14 days post treatment under flooded conditions
# Assay type: functional
This listing pairs molecules with measured Phytotoxicity.
readout-kind: Phytotoxicity (%)

# molecular-string, test-target, result
rows = [
    ("O=C1OC(=C2CCCCC2)C(=O)N1c1ccc(Cl)cc1", "Elatine triandra", 100),
    ("CC/C(C)=C1/OC(=O)N(c2ccc(Cl)cc2)C1=O", "Elatine triandra", 100),
    ("CCCCCC/C(C)=C1/OC(=O)N(c2ccc(Cl)cc2)C1=O", "Elatine triandra", 4),
    ("CC/C(C)=C1/OC(=O)N(c2ccc(F)cc2)C1=O", "Elatine triandra", 100),
    ("CC(C)=C1OC(=O)N(c2ccc(F)cc2)C1=O", "Elatine triandra", 40),
    ("CC(C)=C1OC(=O)N(c2ccc(Cl)cc2)C1=O", "Elatine triandra", 100),
    ("CCC(CC)=C1OC(=O)N(c2ccc(Cl)cc2)C1=O", "Elatine triandra", 100),
    ("CCCC/C(C)=C1/OC(=O)N(c2ccc(Cl)cc2)C1=O", "Elatine triandra", 100),
]

====

# System: Amaranthus viridis
# assay: Pre-emergence herbicidal activity against Amaranthus viridis assessed as phytotoxic weed control visual ratings at 500 g ai/ha measured after 14 days post treatment under upland field conditions
# Assay type: functional
Listed here: items and their measured Phytotoxicity.

# compound, units-symbol, Phytotoxicity
records = [
    ("CC(C)=C1OC(=O)N(c2cc(OC3CCCCC3)c(Cl)cc2F)C1=O", "%", 30),
    ("CCC(CC)Oc1cc(N2C(=O)OC(=C(C)C)C2=O)c(F)cc1Cl", "%", 90),
    ("CCOc1cc(N2C(=O)OC(=C(C)C)C2=O)c(F)cc1Cl", "%", 100),
    ("C#CCOc1cc(N2C(=O)OC(=C(C)C)C2=O)c(F)cc1Cl", "%", 100),
    ("CC(C)=C1OC(=O)N(c2cc(OC(C)C)c(Cl)cc2F)C1=O", "%", 100),
    ("C#CCSc1cc(N2C(=O)OC(=C(C)C)C2=O)c(F)cc1Cl", "%", 100),
    ("CCCCCCOc1cc(N2C(=O)OC(=C(C)C)C2=O)c(F)cc1Cl", "%", 100),
    ("CC(C)Oc1cc(-n2nc(C(C)(C)C)oc2=O)c(Cl)cc1Cl [OXADIAZON]", "%", 100),
    ("CC(C)=C1OC(=O)N(c2cc(OC3CCCC3)c(Cl)cc2F)C1=O [PENTOXAZONE]", "%", 100),
    ("C=CCOc1cc(N2C(=O)OC(=C(C)C)C2=O)c(F)cc1Cl", "%", 80),
    ("COc1cc(N2C(=O)OC(=C(C)C)C2=O)c(F)cc1Cl", "%", 80),
    ("CC(C)=C1OC(=O)N(c2cc(O)c(Cl)cc2F)C1=O", "%", 0),
    ("CCC(C)Oc1cc(N2C(=O)OC(=C(C)C)C2=O)c(F)cc1Cl (stereo not drawn)", "%", 90),
]

====

Measured Phytotoxicity accompanies every entry in the list below.
# Tested on: Chenopodium album
# assay: Pre-emergence herbicidal activity against Chenopodium album assessed as phytotoxic weed control visual ratings at 500 g ai/ha measured after 14 days post treatment under upland field conditions
# Assay type: functional
readout-kind: Phytotoxicity (%)

# molecular-string, result
data = [
    ("C#CCSc1cc(N2C(=O)OC(=C(C)C)C2=O)c(F)cc1Cl", 100),
    ("COc1cc(N2C(=O)OC(=C(C)C)C2=O)c(F)cc1Cl", 90),
    ("CC(C)=C1OC(=O)N(c2cc(OC3CCCC3)c(Cl)cc2F)C1=O", 50),
    ("CC(C)=C1OC(=O)N(c2cc(OC3CCCCC3)c(Cl)cc2F)C1=O", 20),
    ("CC(C)=C1OC(=O)N(c2cc(O)c(Cl)cc2F)C1=O", 10),
    ("CCCCCCOc1cc(N2C(=O)OC(=C(C)C)C2=O)c(F)cc1Cl", 50),
    ("C#CCOc1cc(N2C(=O)OC(=C(C)C)C2=O)c(F)cc1Cl", 100),
]

====

Phytotoxicity: recorded values
# System: Chenopodium album
# assay: Pre-emergence herbicidal activity against Chenopodium album assessed as phytotoxic weed control visual ratings at 500 g ai/ha measured after 14 days post treatment under upland field conditions
# Format: functional

# molecule, Phytotoxicity [%]
records = [
    ("CC(C)=C1OC(=O)N(c2cc(OC(C)C)c(Cl)cc2F)C1=O", 100),
    ("CCC(C)Oc1cc(N2C(=O)OC(=C(C)C)C2=O)c(F)cc1Cl (stereo unspecified)", 10),
    ("CCOc1cc(N2C(=O)OC(=C(C)C)C2=O)c(F)cc1Cl", 90),
    ("CCC(CC)Oc1cc(N2C(=O)OC(=C(C)C)C2=O)c(F)cc1Cl", 90),
    ("CC(C)Oc1cc(-n2nc(C(C)(C)C)oc2=O)c(Cl)cc1Cl", 100),
    ("C=CCOc1cc(N2C(=O)OC(=C(C)C)C2=O)c(F)cc1Cl", 70),
]

FYI, the data here is from ChEMBL document CHEMBL3046126.
